Assay read-out pIC50 on VPS34 (Homo sapiens); records merged from the literature.
Sequence (Q8NEB9 whole entry): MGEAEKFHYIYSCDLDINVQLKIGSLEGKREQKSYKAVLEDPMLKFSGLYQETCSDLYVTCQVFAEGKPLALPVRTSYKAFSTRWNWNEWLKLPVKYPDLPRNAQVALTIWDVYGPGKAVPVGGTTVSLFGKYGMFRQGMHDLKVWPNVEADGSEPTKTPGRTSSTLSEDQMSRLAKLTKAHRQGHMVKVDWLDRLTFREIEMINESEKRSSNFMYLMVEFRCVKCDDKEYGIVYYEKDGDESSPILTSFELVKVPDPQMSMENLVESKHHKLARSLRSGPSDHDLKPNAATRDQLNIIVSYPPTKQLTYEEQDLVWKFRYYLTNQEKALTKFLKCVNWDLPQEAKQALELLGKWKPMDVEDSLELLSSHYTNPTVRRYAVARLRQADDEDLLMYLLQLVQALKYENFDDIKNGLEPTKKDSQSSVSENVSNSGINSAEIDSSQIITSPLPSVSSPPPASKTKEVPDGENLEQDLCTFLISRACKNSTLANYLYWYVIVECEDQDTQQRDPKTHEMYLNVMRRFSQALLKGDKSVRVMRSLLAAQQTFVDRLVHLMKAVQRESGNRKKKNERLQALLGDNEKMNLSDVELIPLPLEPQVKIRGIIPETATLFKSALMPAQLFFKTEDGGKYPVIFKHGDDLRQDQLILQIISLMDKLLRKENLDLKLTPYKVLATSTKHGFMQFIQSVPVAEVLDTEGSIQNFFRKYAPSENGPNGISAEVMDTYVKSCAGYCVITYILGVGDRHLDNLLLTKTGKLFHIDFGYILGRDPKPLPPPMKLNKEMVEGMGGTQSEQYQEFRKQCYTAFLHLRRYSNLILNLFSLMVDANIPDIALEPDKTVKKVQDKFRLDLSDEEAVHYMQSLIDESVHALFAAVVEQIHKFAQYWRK
pIC50: −log10 of the molar value.
property: pIC50

# compound, observed
rows = [
    ("CC(=O)Nc1cc(-n2nc(-c3ccccc3Cl)c(-c3nc[nH]n3)c2Br)c(Br)cn1", "5.30 to 6.00"),
    ("Cc1cc(C(C)Nc2ccccc2C(=O)O)c2oc(N3CCC(C)(C)CC3)cc(=O)c2c1 (single isomer, unassigned)", "< 5.00"),
    ("CC(=O)Nc1cc(-c2cncc3c2cc(C)n3S(=O)(=O)c2ccccc2)ccn1", "7.30 to 8.00"),
    ("CC(=O)Nc1cc(-c2cc(-c3ccccc3C)c(-c3nnc[nH]3)[nH]2)ccn1", "6.00 to 7.00"),
    ("CC(=O)Nc1cc(-c2cncc3c2ccn3S(=O)(=O)C2CC2)c(F)cn1", "7.30 to 8.00"),
    ("CC(=O)Nc1cc(-n2cc(-c3ncc[nH]3)c(-c3ccccc3Cl)n2)c(C)cn1", "> 7.30"),
    ("CC(=O)Nc1cc(-n2cc(C(N)=O)c(-c3ccccc3S(C)(=O)=O)c2)ccn1", "6.00 to 6.82"),
    ("O=S(=O)(c1ccccc1)n1ccc2c(-c3ccnc(Nc4ncco4)c3)cncc21", "7.30 to 8.00"),
    ("Cc1ccc(S(=O)(=O)NCC(C)(C)O)cc1-c1cnc(N)c(-c2nn(C)nc2C)n1", 5.03),
    ("CC(=O)Nc1cc(-c2cc(C(N)=O)n(-c3ccccc3Cl)c2)c(C)cn1", "6.00 to 7.00"),
    ("CC(=O)Nc1cc(-c2cc(-c3ccccc3C)c(C(N)=O)n2C)ccn1", "5.00 to 6.00"),
    ("Cc1ncc(-c2cncc(-c3cc(S(=O)(=O)NCCCO)ccc3C)n2)s1", 5.51),
    ("CCCn1cc(-c2cc(NC(=O)C3CC3)ncc2C)cc1-c1nc[nH]n1", "6.00 to 7.00"),
    ("Cc1cnc(NC(=O)C(C)C)cc1-n1cc(-c2nc[nH]n2)c(-c2ccccc2Cl)c1", "6.00 to 6.82"),
    ("O=c1cc(N2CCOCC2)nc2n1CC[C@@H](C(F)(F)F)N2C1CCCC1", "> 8.00"),
    ("COC(=O)Nc1cc(-n2cc(-c3nc[nH]n3)c(-c3ccccc3Cl)c2)c(C)cn1", "> 7.30"),
    ("Cc1ncc(-c2nc(-c3cc(S(=O)(=O)NCC4(CO)CCOCC4)ccc3C)cnc2N)s1", 5.03),
]
